experiment: Comparative PK of Int 1-4 versus gemcitabine in rat plasma (study i); assay type: in vivo, Sprague-Dawley rats; conditions: plasma, Sprague-Dawley rat, after iv Int 1-4 10.0 mg/kg
Listing of recorded AUC(0-inf) by entry.
measurement_kind: AUC(0-inf) (ng·h/mL)

COc1cc(OC)c2oc(COC(=O)Nc3ccn([C@@H]4O[C@H](CO)[C@@H](O)C4(F)F)c(=O)n3)cc2c1: 2010
Nc1ccn([C@@H]2O[C@H](CO)[C@@H](O)C2(F)F)c(=O)n1: 6000

----------
test: Int 1-4 and gemcitabine comparative PK in male cynomolgus monkey (study g); assay type: in vivo; conditions: plasma, male cynomolgus monkey, after iv Int 1-4 5 mg/kg (study g)
measurement_kind: C0 (µg/mL)

COc1cc(OC)c2oc(COC(=O)Nc3ccn([C@@H]4O[C@H](CO)[C@@H](O)C4(F)F)c(=O)n3)cc2c1 [Int 1-4]: 99.7
